- Tested on: T1, Cyno CD33 full length, expressed on HEK293F cells (cynomolgus monkey)
- T1 construct: HEK293F cells transduced with lentivirus containing full length cyno CD33 (Genbank XP_005590138.1); also called cyCD33
- Method summary: flow cytometry, HEK293F cells expressing cyno CD33
Catalogue of binders with associated MFI at 0 nM mAb (background)
Give the value in MFI but do not write MFI after it.

Binder	MFI at 0 nM mAb (background) (MFI)
C33B72 (antibody, IgG1, V domains shown, huIgG1 F405L; also called C33F77; C33H65/C33L47) VH: QVQLVESGGGVVQPGRSLRLSCAASGFTFSSYGMHWVRQAPGKGLEWVVVISYDGSNKYYADSVKGRFTISRDNSKNTLYLQMNSLRAEDTAVYYCAKDFRDFDWLPPDSTSYHGMDVWGQGTTVTVSS VL: SYELTQPPSVSVSPGQTASITCSGDKLGDKYACWYQQKPGQSPVVVIYQDRKRPSGIPERFSGSNFGNTATLTISGTQAMDEADYYCQAWDSSTVVFGGGTKLTVL	90.8

Turning now to a further binder:
Exercise: Can you share its MFI at 0 nM mAb (background)? I mean this binder: C33B80 (antibody, IgG1, V domains shown, huIgG1 F405L; also called C33F85; C33H76/C33L39) VH: EVQLLESGGGLVQPGGSLRLSCAASGFTFNYAMSWVRQAPGKGLEWVSAISGSGGSTYYADSVKGRFTISRDISKNTLYLQMNSLRAEDTAVYYCARTYNSGYYDGDFDYWGQGTLVTVSS VL: QSALTQPASVSGSPGQSIPISSTGTSSDDGKNNIVSWYQQHPGKAPKLMIYKDSKRPSGVSNRFSGSKSGNTASLTISGLQADDEADYHCCSYAGASNHVVFGGGTKLTVL
Solution: 82.4
